Value source: paper PMC9482650

- study-target: T1, PDZD2_2, O15018
- T1 sequence (O15018 329-429, limits assumed, looked up): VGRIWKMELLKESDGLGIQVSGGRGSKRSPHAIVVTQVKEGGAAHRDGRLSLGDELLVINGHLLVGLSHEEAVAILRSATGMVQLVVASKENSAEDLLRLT
- method: holdup assay
- Set-up: key: below the threshold = too weak to quantify, mostly under pKd 3.1 to 4
- experimental-parameters: plain residues with an end cap or a label only (N-terminal biotin on a linker: ado-ado)

# binder, pKd
rows = [
    ("NTLNRKTTPV [CACNG8, Q8WXS5]", 3.81),
    ("REEPDHSTEV [CCRL2, O00421]", 5.32),
    ("ILRKSTTTTV [PRR16, Q569H4]", 4.18),
    ("EDGESWEYQI [TRPV6, Q9H1D0]", 4.66),
    ("ELSATVTTDC [TRIP6, Q15654]", 4.2),
    ("SVTSERETNI [SLC16A7, O60669]", 4.65),
    ("RQKEVRESKC [SCN8A, Q9UQD0]", 3.94),
    ("DDASLPVSDV [PLEKHA1, Q9HB21]", 5.49),
    ("PPGKHLVTEV [KCNA7, Q96RP8]", 4.62),
    ("AQRARSPSDV [GPR12, P47775]", 4.71),
]
